Numbers sourced from patent US20160362487A1.

Target: T1, human IL-33 (R&D Systems, #3625-IL-010/CF) (human, UniProt O95760 112-270)
T1 sequence (looked up): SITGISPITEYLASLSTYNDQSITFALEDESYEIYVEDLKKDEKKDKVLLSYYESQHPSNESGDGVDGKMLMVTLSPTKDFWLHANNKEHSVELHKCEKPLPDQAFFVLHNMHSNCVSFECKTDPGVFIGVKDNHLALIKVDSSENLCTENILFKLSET
Test: cell-based or functional assay
Below, each of the binders is paired with its reported IC50, blocking of IFN-γ release from human PBMC induced by 260 pM hIL-33, donor #603487 value.
Please state the figure in M; there is no need to write the unit.

binder: H4H9664P (antibody, human IgG4, V domains shown, Human IgG4 Fc (H4H)) VH: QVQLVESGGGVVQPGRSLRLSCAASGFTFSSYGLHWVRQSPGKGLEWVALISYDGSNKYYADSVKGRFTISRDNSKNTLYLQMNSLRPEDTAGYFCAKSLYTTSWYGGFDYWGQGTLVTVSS VL: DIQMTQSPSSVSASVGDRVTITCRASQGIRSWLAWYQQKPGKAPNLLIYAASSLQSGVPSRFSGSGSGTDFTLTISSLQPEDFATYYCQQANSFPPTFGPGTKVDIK
units: M
recorded.measurement: 6.08e-09

Consider the additional binder presented here.
Summary for this binder, H4H9665P (antibody, human IgG4, V domains shown, Human IgG4 Fc (H4H)) VH: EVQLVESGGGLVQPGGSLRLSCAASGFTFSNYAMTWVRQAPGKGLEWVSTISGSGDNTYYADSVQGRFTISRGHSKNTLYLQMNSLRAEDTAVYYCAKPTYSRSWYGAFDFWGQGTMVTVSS VL: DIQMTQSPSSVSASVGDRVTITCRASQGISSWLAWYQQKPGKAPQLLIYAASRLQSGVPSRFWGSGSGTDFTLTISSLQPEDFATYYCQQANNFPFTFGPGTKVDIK : IC50, blocking of IFN-γ release from human PBMC induced by 260 pM hIL-33, donor #603487 is 2.34e-08
